Ki values recorded for serotonergic 5-HT1A receptors (Rattus norvegicus)
readout.name: Ki (pM)

>>> experimental_result("CC(C)(C)C(=O)NCCCCNCCOc1cccc2cccnc12 [Compound 1]")
81

P = Cc1ccc2cccc(OCCNCCCCNC(=O)CC(C)(C)C)c2n1 [Compound 7]
Q = O=C(NCCCCNCCOc1cccc2cccnc12)C1CCCCC1 [Compound 3]
R = O=C(CCCCNCCOc1cccc2cccnc12)NC1CCCCC1 [Compound 11]
Prompt line: Sort by Ki, descending. Would you mind listing the labels in the order requested?
Response line: P, Q, R
